Hello, the source for this data is patent US6545182B2, in case you need it.

# experimental_target: alpha 2C adrenergic receptor (Homo sapiens)
# Construct: expressed in transfected cells; host or cells: NIH-3T3 cells, transient cotransfection by calcium phosphate
# assay_explanation: RSAT (Receptor Selection and Amplification Technology) assay, alpha 2C
# Assay type: cell-based
# particulars: NIH-3T3 cells cotransfected with receptor and Gq/i5
Kindly supply the reported EC50 values for the records listed here.
A number alone suffices; assume nM.

// sample `COc1c(F)cccc1CNC(=S)NCCO` , its EC50 was 843

// sample `OCCNC(=S)NCc1c(F)ccc(Cl)c1Cl` , its EC50 was 238

// sample `OCCNC(=S)NCc1ccc(F)c(Br)c1F` , its EC50 was 786

// sample `COc1ccc(Cl)cc1CNC(=S)NCCO` , its EC50 was 175

// sample `Cc1cccc(CNC(=S)NCCO)c1` , its EC50 was 602

// sample `OCCNC(=S)NCc1cc(F)ccc1F` , its EC50 was 53

// sample `OCCNC(=S)NCc1cc(Cl)ccc1F` , its EC50 was 87

* * *

# experimental_target: alpha 2B adrenergic receptor (Homo sapiens)
# Construct: expressed in transfected cells; host or cells: NIH-3T3 cells, transient cotransfection by calcium phosphate
# assay_explanation: RSAT (Receptor Selection and Amplification Technology) assay, alpha 2B
# Assay type: cell-based
# particulars: ratio of maximal effect to that of standard full agonist brimonidine
Decide using efficacy or intrinsic activity (value in parentheses) Alpha 2B: a value greater than or equal to 0.9 is satisfied, a smaller one is not satisfied.

Please tell me: is the compound OCCNC(=S)NCc1cccc(Cl)c1F [drawing 20] at or over 0.9 in terms of efficacy or intrinsic activity (value in parentheses) Alpha 2B? not satisfied

Please tell me: is the compound `OCCNC(=S)NCc1ccccc1C(F)(F)F` at or over 0.9 in terms of efficacy or intrinsic activity (value in parentheses) Alpha 2B? satisfied

Please tell me: is the compound `COc1cccc(CNC(=S)NCCO)c1F` at or over 0.9 in terms of efficacy or intrinsic activity (value in parentheses) Alpha 2B? satisfied

Please tell me: is the compound `OCCNC(=S)NCc1c(F)ccc(Cl)c1F` at or over 0.9 in terms of efficacy or intrinsic activity (value in parentheses) Alpha 2B? not satisfied

Please tell me: is the compound `OCCNC(=S)NCc1c(F)ccc(F)c1Cl` at or over 0.9 in terms of efficacy or intrinsic activity (value in parentheses) Alpha 2B? satisfied

Please tell me: is the compound `Cc1cc(Br)cc(CNC(=S)NCCO)c1F` at or over 0.9 in terms of efficacy or intrinsic activity (value in parentheses) Alpha 2B? not satisfied

Please tell me: is the compound `OCCNC(=S)NCc1cccc(OC(F)(F)F)c1` at or over 0.9 in terms of efficacy or intrinsic activity (value in parentheses) Alpha 2B? not satisfied

Please tell me: is the compound `OCCNC(=S)NCc1c(Cl)cccc1Cl` at or over 0.9 in terms of efficacy or intrinsic activity (value in parentheses) Alpha 2B? satisfied

Please tell me: is the compound `OCCNC(=S)NCc1ccc(F)cc1Cl` at or over 0.9 in terms of efficacy or intrinsic activity (value in parentheses) Alpha 2B? not satisfied

Please tell me: is the compound `OCCNC(=S)NCc1c(F)cc(F)c(Cl)c1F` at or over 0.9 in terms of efficacy or intrinsic activity (value in parentheses) Alpha 2B? not satisfied

Please tell me: is the compound `OCCNC(=S)NCc1cc(Cl)ccc1F` at or over 0.9 in terms of efficacy or intrinsic activity (value in parentheses) Alpha 2B? satisfied

Please tell me: is the compound `OCCNC(=S)NCc1cccc(I)c1` at or over 0.9 in terms of efficacy or intrinsic activity (value in parentheses) Alpha 2B? satisfied

Please tell me: is the compound `Cc1cc(Cl)cc(CNC(=S)NCCO)c1F` at or over 0.9 in terms of efficacy or intrinsic activity (value in parentheses) Alpha 2B? satisfied

Please tell me: is the compound `OCCNC(=S)NCc1c(Br)ccc(I)c1F` at or over 0.9 in terms of efficacy or intrinsic activity (value in parentheses) Alpha 2B? not satisfied

Please tell me: is the compound `OCCNC(=S)NCc1cc(F)ccc1O` at or over 0.9 in terms of efficacy or intrinsic activity (value in parentheses) Alpha 2B? satisfied

* * *

# experimental_target: alpha 2C adrenergic receptor (Homo sapiens, UniProt P18825)
# Construct: expressed in transfected cells; host or cells: NIH-3T3 cells, transient cotransfection by calcium phosphate
# Sequence (P18825 whole entry, species assumed): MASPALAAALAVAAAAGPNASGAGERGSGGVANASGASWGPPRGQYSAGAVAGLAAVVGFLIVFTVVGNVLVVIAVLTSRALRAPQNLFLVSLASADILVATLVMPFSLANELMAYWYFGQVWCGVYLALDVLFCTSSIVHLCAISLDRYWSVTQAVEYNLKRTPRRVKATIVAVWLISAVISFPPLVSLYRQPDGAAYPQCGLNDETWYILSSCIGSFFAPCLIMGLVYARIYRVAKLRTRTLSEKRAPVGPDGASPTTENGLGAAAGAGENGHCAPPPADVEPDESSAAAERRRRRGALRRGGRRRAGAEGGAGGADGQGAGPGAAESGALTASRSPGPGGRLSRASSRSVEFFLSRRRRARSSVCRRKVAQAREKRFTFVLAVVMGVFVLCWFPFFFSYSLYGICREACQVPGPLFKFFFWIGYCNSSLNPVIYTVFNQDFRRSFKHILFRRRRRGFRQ
# assay_explanation: RSAT (Receptor Selection and Amplification Technology) assay, alpha 2C
# Assay type: cell-based
# particulars: ratio of maximal effect to that of standard full agonist brimonidine
Class definitions on efficacy or intrinsic activity (value in parentheses) Alpha 2C: label 0 (below 0.4), label 1 (0.4 to below 0.6), label 2 (0.6 or more)

Band of `Cc1cc(Br)c(F)c(CNC(=S)NCCO)c1` ? label 1

Band of `Cc1cc(Br)cc(CNC(=S)NCCO)c1F` ? label 0

Band of `OCCNC(=S)NCc1cc(F)ccc1O` ? label 2

Band of `COc1c(F)cccc1CNC(=S)NCCO` ? label 0

Band of `OCCNC(=S)NCc1c(F)c(F)cc(F)c1F` ? label 1

Band of `OCCNC(=S)NCc1c(F)ccc(Cl)c1Cl` ? label 0

Band of `OCCNC(=S)NCc1c(F)ccc(F)c1Cl` ? label 1

Band of `OCCNC(=S)NCc1cccc(Br)c1F` ? label 2

Band of `OCCNC(=S)NCc1cccc(I)c1F` ? label 2

Band of `COc1cccc(F)c1CNC(=S)NCCO` ? label 1

Band of `OCCNC(=S)NCc1cc(Br)ccc1F` ? label 1

Band of `OCCNC(=S)NCc1c(F)cccc1C(F)(F)F` ? label 0

Band of `OCCNC(=S)NCc1cccc(C(F)(F)F)c1F` ? label 0

Band of `OCCNC(=S)NCc1ccc(F)c(Br)c1F` ? label 2

Band of `COc1ccc(Cl)cc1CNC(=S)NCCO` ? label 1

Band of `Cc1cc(Cl)cc(CNC(=S)NCCO)c1F` ? label 2

Band of `Cc1cccc(CNC(=S)NCCO)c1` ? label 0

Band of `OCCNC(=S)NCc1c(Cl)ccc(Cl)c1F` ? label 2

* * *

# experimental_target: alpha 2B adrenergic receptor (Homo sapiens, UniProt P18089)
# Construct: expressed in transfected cells; host or cells: NIH-3T3 cells, transient cotransfection by calcium phosphate
# Sequence (P18089 whole entry): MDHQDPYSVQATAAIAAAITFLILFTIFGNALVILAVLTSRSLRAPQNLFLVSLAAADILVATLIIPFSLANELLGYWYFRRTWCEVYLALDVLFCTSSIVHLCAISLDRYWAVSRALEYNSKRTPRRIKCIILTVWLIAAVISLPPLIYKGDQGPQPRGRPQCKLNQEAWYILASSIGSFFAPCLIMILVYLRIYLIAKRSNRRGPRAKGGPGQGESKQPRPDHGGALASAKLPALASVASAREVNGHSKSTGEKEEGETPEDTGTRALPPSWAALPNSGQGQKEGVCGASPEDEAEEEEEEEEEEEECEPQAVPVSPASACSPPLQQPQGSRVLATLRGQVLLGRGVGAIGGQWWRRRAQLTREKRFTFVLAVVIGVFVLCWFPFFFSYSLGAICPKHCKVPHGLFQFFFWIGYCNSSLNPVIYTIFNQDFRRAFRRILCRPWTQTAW
# assay_explanation: RSAT (Receptor Selection and Amplification Technology) assay, alpha 2B
# Type: cell-based
# particulars: NIH-3T3 cells cotransfected with receptor and Gq/i5
Kindly supply the reported log10 EC50 values for the records listed here.
Quick note: numbers are log10 of EC50, with nM as the unit.

// sample `OCCNC(=S)NCc1cccc(OC(F)(F)F)c1` , its log10 EC50 was 3.38

// sample `OCCNC(=S)NCc1cccc(I)c1F` , its log10 EC50 was 0.30

// sample `OCCNC(=S)NCc1cccc(C(F)(F)F)c1F` , its log10 EC50 was 1.57

// sample `Cc1cccc(CNC(=S)NCCO)c1` , its log10 EC50 was 2.96

// sample `OCCNC(=S)NCc1cc(Br)ccc1Cl` , its log10 EC50 was 1.70

// sample `OCCNC(=S)NCc1c(F)ccc(F)c1Cl` , its log10 EC50 was 1.64

// sample `OCCNC(=S)NCc1cc(F)c(F)cc1F` , its log10 EC50 was 2.43

// sample `OCCNC(=S)NCc1c(F)c(F)c(F)c(F)c1F` , its log10 EC50 was 3.37

// sample `OCCNC(=S)NCc1ccc(F)c(Br)c1F` , its log10 EC50 was 2.14

// sample `OCCNC(=S)NCc1cccc(I)c1` , its log10 EC50 was 1.48

// sample `OCCNC(=S)NCc1cccc(Br)c1` , its log10 EC50 was 1.15

// sample `OCCNC(=S)NCc1cc(F)ccc1O` , its log10 EC50 was 1.43

// sample `OCCNC(=S)NCc1cccc(Cl)c1` , its log10 EC50 was 1.20

// sample `OCCNC(=S)NCc1cc(C(F)(F)F)ccc1F` , its log10 EC50 was 2.72

// sample `COc1cccc(CNC(=S)NCCO)c1` , its log10 EC50 was 2.95

// sample `Cc1ccc(F)c(CNC(=S)NCCO)c1` , its log10 EC50 was 1.98

// sample `OCCNC(=S)NCc1ccccc1Br` , its log10 EC50 was 1.00

* * *

# experimental_target: alpha 2B adrenergic receptor (Homo sapiens)
# Construct: expressed in transfected cells; host or cells: NIH-3T3 cells, transient cotransfection by calcium phosphate
# assay_explanation: RSAT (Receptor Selection and Amplification Technology) assay, alpha 2B
# Format: cell-based
# particulars: ratio of maximal effect to that of standard full agonist brimonidine
Decide using efficacy or intrinsic activity (value in parentheses) Alpha 2B: a value greater than or equal to 0.8 is t, a smaller one is f.

Please tell me: is the compound `OCCNC(=S)NCc1cc(F)ccc1F` at or over 0.8 in terms of efficacy or intrinsic activity (value in parentheses) Alpha 2B? t

Please tell me: is the compound `OCCNC(=S)NCc1ccc(F)c(F)c1F` at or over 0.8 in terms of efficacy or intrinsic activity (value in parentheses) Alpha 2B? f

Please tell me: is the compound `OCCNC(=S)NCc1cccc(Br)c1F` at or over 0.8 in terms of efficacy or intrinsic activity (value in parentheses) Alpha 2B? t

Please tell me: is the compound `OCCNC(=S)NCc1cc(F)c(F)cc1F` at or over 0.8 in terms of efficacy or intrinsic activity (value in parentheses) Alpha 2B? f

Please tell me: is the compound `Cc1ccc(CNC(=S)NCCO)cc1` at or over 0.8 in terms of efficacy or intrinsic activity (value in parentheses) Alpha 2B? f

Please tell me: is the compound `OCCNC(=S)NCc1c(F)ccc(Cl)c1Cl` at or over 0.8 in terms of efficacy or intrinsic activity (value in parentheses) Alpha 2B? f

Please tell me: is the compound `OCCNC(=S)NCc1cc(Br)c(F)c(F)c1F` at or over 0.8 in terms of efficacy or intrinsic activity (value in parentheses) Alpha 2B? t

Please tell me: is the compound `OCCNC(=S)NCc1cc(F)ccc1Br` at or over 0.8 in terms of efficacy or intrinsic activity (value in parentheses) Alpha 2B? t

Please tell me: is the compound `Cc1ccc(Br)c(F)c1CNC(=S)NCCO` at or over 0.8 in terms of efficacy or intrinsic activity (value in parentheses) Alpha 2B? t

Please tell me: is the compound `OCCNC(=S)NCc1c(F)cccc1F` at or over 0.8 in terms of efficacy or intrinsic activity (value in parentheses) Alpha 2B? f

Please tell me: is the compound `Cc1ccccc1CNC(=S)NCCO` at or over 0.8 in terms of efficacy or intrinsic activity (value in parentheses) Alpha 2B? f

Please tell me: is the compound `COc1c(F)cccc1CNC(=S)NCCO` at or over 0.8 in terms of efficacy or intrinsic activity (value in parentheses) Alpha 2B? t

Please tell me: is the compound `OCCNC(=S)NCc1c(Cl)ccc(Cl)c1F` at or over 0.8 in terms of efficacy or intrinsic activity (value in parentheses) Alpha 2B? t

Please tell me: is the compound `OCCNC(=S)NCc1cc(I)ccc1F` at or over 0.8 in terms of efficacy or intrinsic activity (value in parentheses) Alpha 2B? f

Please tell me: is the compound `CCOc1ccccc1CNC(=S)NCCO` at or over 0.8 in terms of efficacy or intrinsic activity (value in parentheses) Alpha 2B? f

Please tell me: is the compound `OCCNC(=S)NCc1c(F)cc(F)c(F)c1F` at or over 0.8 in terms of efficacy or intrinsic activity (value in parentheses) Alpha 2B? t

Please tell me: is the compound `OCCNC(=S)NCc1c(F)cccc1Cl` at or over 0.8 in terms of efficacy or intrinsic activity (value in parentheses) Alpha 2B? f

Please tell me: is the compound `OCCNC(=S)NCc1cccc(Cl)c1Cl` at or over 0.8 in terms of efficacy or intrinsic activity (value in parentheses) Alpha 2B? t

Please tell me: is the compound `OCCNC(=S)NCc1cc(Cl)cc(Cl)c1F` at or over 0.8 in terms of efficacy or intrinsic activity (value in parentheses) Alpha 2B? t

Please tell me: is the compound `OCCNC(=S)NCc1cc(Br)ccc1F` at or over 0.8 in terms of efficacy or intrinsic activity (value in parentheses) Alpha 2B? t

Please tell me: is the compound `OCCNC(=S)NCc1cccc(Cl)c1` at or over 0.8 in terms of efficacy or intrinsic activity (value in parentheses) Alpha 2B? f

Please tell me: is the compound `OCCNC(=S)NCc1cc(Br)cc(Br)c1F` at or over 0.8 in terms of efficacy or intrinsic activity (value in parentheses) Alpha 2B? t

Please tell me: is the compound `OCCNC(=S)NCc1c(Br)ccc(F)c1F` at or over 0.8 in terms of efficacy or intrinsic activity (value in parentheses) Alpha 2B? f

Please tell me: is the compound `OCCNC(=S)NCc1ccc(F)c(Br)c1F` at or over 0.8 in terms of efficacy or intrinsic activity (value in parentheses) Alpha 2B? t

Please tell me: is the compound `COc1ccc(F)cc1CNC(=S)NCCO` at or over 0.8 in terms of efficacy or intrinsic activity (value in parentheses) Alpha 2B? t

Please tell me: is the compound `Cc1ccc(F)c(CNC(=S)NCCO)c1` at or over 0.8 in terms of efficacy or intrinsic activity (value in parentheses) Alpha 2B? t
